// values below are reported Emax at 24 h, 15 µM
molecular target: PXR (Homo sapiens (Human)); experiment: Human PXR activation assay (luciferase reporter gene assay, DPX2 cells); assay type: cell-based; details: human; 15 μM; relative to maximum fold induction by 10 or 20 μM rifampicin; DPX2 cells, 24 hours; read-out: % Emax at 15 μM
Sequence (O75469 whole entry): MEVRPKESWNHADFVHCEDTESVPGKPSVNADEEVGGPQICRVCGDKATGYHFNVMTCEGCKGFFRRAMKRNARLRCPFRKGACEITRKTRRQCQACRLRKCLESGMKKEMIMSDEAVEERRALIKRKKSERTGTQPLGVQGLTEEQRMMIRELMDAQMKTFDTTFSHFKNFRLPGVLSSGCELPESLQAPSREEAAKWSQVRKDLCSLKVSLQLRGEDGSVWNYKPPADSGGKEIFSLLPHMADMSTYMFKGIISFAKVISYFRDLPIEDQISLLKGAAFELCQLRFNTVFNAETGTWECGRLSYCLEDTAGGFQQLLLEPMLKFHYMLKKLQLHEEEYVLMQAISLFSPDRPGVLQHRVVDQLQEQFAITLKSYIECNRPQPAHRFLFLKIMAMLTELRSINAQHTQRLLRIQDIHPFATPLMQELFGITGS
Enter your answer as a number in %; do not include the unit.

Emax at 24 h, 15 µM for O=C(NCc1c(F)cc(F)cc1F)c1cn2c(c(O)c1=O)C(=O)N1[C@H]3C[C@H](C3)[C@@H]1C2 (single isomer, unassigned) [Compound 97] is 9

Emax at 24 h, 15 µM for O=C(NCc1c(F)cc(F)cc1F)c1cn2c(c(O)c1=O)C(=O)N1[C@H]3CC[C@H](C3)O[C@@H]1C2 [Compound 42] is 21

Emax at 24 h, 15 µM for O=C(NCc1ccc(F)cc1F)c1cn2c(c(O)c1=O)C(=O)N1[C@H]3CC[C@H](CC3)[C@H]1C2 [Compound 100] is 45

Emax at 24 h, 15 µM for O=C(NCc1ccc(F)cc1F)c1cn2c(c(O)c1=O)C(=O)N1C(C2)[C@H]2CC[C@@H]1C2 (stereo in doubt) [Compound 38] is 7

Emax at 24 h, 15 µM for O=C(NCc1ccc(F)cc1Cl)c1cn2c(c(O)c1=O)C(=O)N1[C@H]3CC[C@H](C3)O[C@@H]1C2 [Compound 63] is 13

Emax at 24 h, 15 µM for O=C(NCc1ccc(F)cc1F)c1cn2c(c(O)c1=O)C(=O)N1[C@H]3CC[C@H](C3)[C@@H]1C2 [Compound 47] is 11
